- System: OTC
- Test Details: JAK inhibitors at 0.3 and 3 μM in primary human hepatocytes, OTC mRNA fold change
- Format: cell-based
- Applied Conditions: 0.3 uM, fold change vs DMSO
Rule: OTC mRNA FC under 2 gives Criterion not met, otherwise Criterion met.

- Molecule: "Cc1cc(Nc2nc(N[C@@H](C)c3ncc(F)cn3)ncc2Cl)[nH]n1"
  Target Of Assay: "OTC"
  Label Class: "Criterion not met"
- Molecule: "CCS(=O)(=O)N1CCN(c2ccc(Nc3ncc(C(N)=O)c(NC4CC4)n3)cc2)CC1"
  Target Of Assay: "OTC"
  Label Class: "Criterion met"
- Molecule: "O=C(Nc1c[nH]nc1-c1nc2ccc(CN3CCOCC3)cc2[nH]1)NC1CC1"
  Target Of Assay: "OTC"
  Label Class: "Criterion not met"
- Molecule: "N#CCC1(n2cc(-c3ncnc4[nH]ccc34)cn2)CN(C2CCN(C(=O)c3ccnc(C(F)(F)F)c3F)CC2)C1"
  Target Of Assay: "OTC"
  Label Class: "Criterion met"
- Molecule: "Cc1cnc(Nc2ccc(OCCN3CCCC3)cc2)nc1Nc1cccc(S(=O)(=O)NC(C)(C)C)c1"
  Target Of Assay: "OTC"
  Label Class: "Criterion not met"
- Molecule: "CCc1cc(O)c(F)cc1-c1ccc2c(-c3nc4c([nH]3)CCN(C(=O)c3cnc(N5CCCCC5)cn3)C4)n[nH]c2c1"
  Target Of Assay: "OTC"
  Label Class: "Criterion not met"
- Molecule: "NC(=O)c1cnc2[nH]ccc2c1N[C@@H]1[C@@H]2CC3C[C@H]1C[C@@](O)(C3)C2"
  Target Of Assay: "OTC"
  Label Class: "Criterion met"
- Molecule: "C[C@@H]1CCN(C(=O)CC#N)C[C@@H]1N(C)c1ncnc2[nH]ccc12"
  Target Of Assay: "OTC"
  Label Class: "Criterion met"
- Molecule: "COc1cc2ncnc(Nc3ccc(O)cc3)c2cc1OC"
  Target Of Assay: "OTC"
  Label Class: "Criterion not met"
- Molecule: "Cc1cc(Nc2cc(CN3CCOCC3)c3nc(C)c(Cc4ccc(Cl)cc4F)n3n2)n[nH]1 [LY2784544/gandotinib]"
  Target Of Assay: "OTC"
  Label Class: "Criterion not met"
- Molecule: "CCS(=O)(=O)N1CC(CC#N)(n2cc(-c3ncnc4[nH]ccc34)cn2)C1"
  Target Of Assay: "OTC"
  Label Class: "Criterion met"
- Molecule: "CC[C@@H]1CN(C(=O)NCC(F)(F)F)C[C@@H]1c1cnc2cnc3[nH]ccc3n12"
  Target Of Assay: "OTC"
  Label Class: "Criterion met"
- Molecule: "O=C(Nc1nc2cccc(-c3ccc(CN4CCS(=O)(=O)CC4)cc3)n2n1)C1CC1"
  Target Of Assay: "OTC"
  Label Class: "Criterion not met"

----------
In this section, each of the compounds is paired with its reported OTC mRNA FC.
- Tested on: OTC
- Test Details: JAK inhibitors at 0.3 and 3 μM in primary human hepatocytes, OTC mRNA fold change
- Type: cell-based
- Applied Conditions: 0.3 uM, fold change vs DMSO
Assay Endpoint: OTC mRNA FC

- Compound: "CCn1c(C(=O)N(C2CC2)C2CC2)cc2c3c(ncn3C)c(Nc3cc(C)n(C)n3)nc21"
  Assay Endpoint: "OTC mRNA FC"
  Reported Value: 1.94
- Compound: "CN1C/C=C/CCOc2cccc(c2)-c2ccnc(n2)Nc2cccc(c2)C1"
  Assay Endpoint: "OTC mRNA FC"
  Reported Value: 1.05
- Compound: "N#CC[C@H](C1CCCC1)n1cc(-c2ncnc3[nH]ccc23)cn1"
  Assay Endpoint: "OTC mRNA FC"
  Reported Value: 2.65
- Compound: "O=C(Nc1ccc(-c2ccnc(Nc3ccc(N4CCOCC4)cc3)n2)cc1)C1CCCN1 (centres unmarked)"
  Assay Endpoint: "OTC mRNA FC"
  Reported Value: 1.09
- Compound: "CC[C@@](C)(Nc1ccnc(-c2c[nH]c3ncccc23)n1)C(=O)NCC(F)(F)F"
  Assay Endpoint: "OTC mRNA FC"
  Reported Value: 1.01
